Target: T1, UNK ZnF1-6 (called full-length) (human, UniProt Q9C0B0 30-357)
T1 sequence: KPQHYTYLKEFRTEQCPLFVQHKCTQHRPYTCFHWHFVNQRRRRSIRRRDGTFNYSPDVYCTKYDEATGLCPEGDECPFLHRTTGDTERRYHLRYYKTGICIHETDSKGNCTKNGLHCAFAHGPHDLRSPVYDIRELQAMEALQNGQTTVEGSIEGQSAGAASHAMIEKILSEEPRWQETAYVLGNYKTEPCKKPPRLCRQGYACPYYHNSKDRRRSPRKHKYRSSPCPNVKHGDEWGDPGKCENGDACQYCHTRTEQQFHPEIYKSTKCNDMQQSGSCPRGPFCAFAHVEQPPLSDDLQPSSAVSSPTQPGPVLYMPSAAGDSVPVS
Test: nsRBNS (natural sequence RNA bind-n-seq); RBNS binding buffer (assumed for nsRBNS): 25 mM Tris pH 7.5, 150 mM KCl, 3 mM MgCl2, 0.01% Triton X-100, 500 ug/ml BSA, 20 U/ml SUPERase-In, 4 C; UNK is unkempt and MSI1 is Musashi-1; names of the RNAs are library labels; protein concentration not given here; high values mean tight binding
Whole data set: some 5,800 sequences, median “enrichment r” near 0.68, cut for the highest 2% near 11. Many of the other results were omitted from the sample, so the highest values are more common in it than they were.
observable: binding signal (enrichment R)
Entry rule: numbers only, all in enrichment R.

Field: example entries. Status: answers known.
binder	binding signal (enrichment R)
ENSG00000113300:stop:overlap|stop_codon|ENSG00000113300|stop_codon|NA|stop_codon (ssRNA) RNA: GGGAGUUCUACAGUCCGACGAUCUGGAGCUCUUACUGCCUUUCCUGCCCCAAGUCAACGGCAUCCACCUUCCUGGCAGGAGGUAGUCAAGCACCUUCAGAGGACAGCCUUGAUUCACUUGUAAACUUGUGAAAAUCUGAACAUCAACAGAGGAUUGAGCAUCA	21.5
chr12:64147824:64147925:+|3pUTR|ENSG00000196935|unk|total|mutant (ssRNA) RNA: GGGAGUUCUACAGUCCGACGAUCCAUCUCUGUGGUGUCUUUGUUCCUUUCCUUUCAUUCAUCACUACUUUCUCCUUGACAGCCCGCUUGCAUUAAAUAAUGUGAAACUUUUACCUUUAAAAUAUUUUUUUAUCUCACUUUCAUCAACAGAGGAUUGAGCAUCA	2.22

Please look at the following binder next.
If you can, please state the reported binding signal value of chr8:23842113:23842214:-|3pUTR|ENSG00000159167|msi1|FALSE|unique (ssRNA) RNA: GGGAGUUCUACAGUCCGACGAUCACUUUAGACAUUUUUGUGCCAUUAUAUUUGCAUUAUGUAUUUAUAAUUUAAAUGAUAUUUAGGUUUUUGGCUGAGUACUGGAAUAAACAGUGAGCAUAUCUGGUAUAUGUCAUUAUUUAUCAACAGAGGAUUGAGCAUCA .
3.25
